pIC50 by entry:
target: Renin (Rattus norvegicus); experiment: Inhibitory activity against rat plasma renin in vitro.
Sequence (P08424 whole entry): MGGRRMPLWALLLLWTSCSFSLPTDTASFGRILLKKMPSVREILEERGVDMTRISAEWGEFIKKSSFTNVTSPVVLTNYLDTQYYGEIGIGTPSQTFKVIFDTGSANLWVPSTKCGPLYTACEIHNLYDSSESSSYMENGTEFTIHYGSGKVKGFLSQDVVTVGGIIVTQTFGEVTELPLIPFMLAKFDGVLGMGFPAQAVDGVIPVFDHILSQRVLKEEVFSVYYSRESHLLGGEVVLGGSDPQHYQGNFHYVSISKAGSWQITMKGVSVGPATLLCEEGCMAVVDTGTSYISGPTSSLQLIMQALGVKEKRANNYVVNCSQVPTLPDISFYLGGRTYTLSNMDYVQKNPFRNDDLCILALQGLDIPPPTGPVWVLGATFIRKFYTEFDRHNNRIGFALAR
*1 amine or outer side, *2 acyl side, *3 side chain or, on linkers, in order; H or OH if unused. Where a SMILES comes first, the peptide text is derived from it. [ ]: non-standard residue; d: D form. Ahppa(3S,4S) = O=C(C[C@H](O)[C@H](Cc1ccccc1)N[*:1])[*:2]; 1Nal = N[C@@H](Cc1cccc2ccccc12)C(=O)O; Sta = CC(C)C[C@H](N)[C@@H](O)CC(=O)O
Answer as the number alone; pIC50 is minus log10 of concentration in mol/L.

>>> value_reported("CC(=O)N[C@@H](Cc1cccc2ccccc12)C(=O)N1CCC[C@H]1C(=O)N[C@@H](Cc1ccccc1)C(=O)N[C@H](C(=O)N[C@@H](CC(C)C)[C@@H](O)CC(=O)N[C@@H](CC(C)C)C(=O)N[C@@H](Cc1ccccc1)C(N)=O)C(C)C (Ac-[1Nal]PFV[Sta]LF-NH2)")
7.30
>>> value_reported("CC(C)[C@H](NC(=O)C[C@H](O)[C@H](Cc1ccccc1)NC(=O)[C@H](Cc1c[nH]cn1)NC(=O)[C@H](Cc1ccccc1)NC(=O)[C@@H]1CCCN1C(=O)[C@H](Cc1c[nH]cn1)NC(=O)[C@@H]1CCCN1)C(=O)N[C@@H](Cc1ccc(O)cc1)C(=O)N[C@@H](CCCCN)C(N)=O (H-PHPFH[Ahppa(3S,4S)]VYK-NH2)")
5.89
>>> value_reported("CC(=O)N[C@@H](Cc1c[nH]cn1)C(=O)N1CCC[C@H]1C(=O)N[C@@H](Cc1cccc2ccccc12)C(=O)N[C@@H](Cc1c[nH]cn1)C(=O)N[C@@H](CC(C)C)[C@@H](O)CC(=O)N[C@@H](CC(C)C)C(=O)N[C@@H](Cc1ccccc1)C(N)=O (Ac-HP[1Nal]H[Sta]LF-NH2)")
6.66

// moving on: another record for pIC50
Record CC(C)C[C@H](NC(=O)[C@H](Cc1c[nH]cn1)NC(=O)[C@H](Cc1ccccc1)NC(=O)[C@@H]1CCCN1C(=O)[C@H](Cc1c[nH]cn1)NC(=O)[C@@H]1CCCN1)[C@@H](O)CC(=O)N[C@@H](Cc1ccc(O)cc1)C(=O)N[C@@H](Cc1ccc(O)cc1)C(=O)N[C@@H](CO)C(=O)N[C@@H](CCCCN)C(N)=O (H-PHPFH[Sta]YYSK-NH2) , field pIC50: 5.10

====

molecular target: Renin (Homo sapiens, UniProt P00797); assay: Compound was tested for its inhibitory activity against human plasma renin
Sequence (P00797 whole entry): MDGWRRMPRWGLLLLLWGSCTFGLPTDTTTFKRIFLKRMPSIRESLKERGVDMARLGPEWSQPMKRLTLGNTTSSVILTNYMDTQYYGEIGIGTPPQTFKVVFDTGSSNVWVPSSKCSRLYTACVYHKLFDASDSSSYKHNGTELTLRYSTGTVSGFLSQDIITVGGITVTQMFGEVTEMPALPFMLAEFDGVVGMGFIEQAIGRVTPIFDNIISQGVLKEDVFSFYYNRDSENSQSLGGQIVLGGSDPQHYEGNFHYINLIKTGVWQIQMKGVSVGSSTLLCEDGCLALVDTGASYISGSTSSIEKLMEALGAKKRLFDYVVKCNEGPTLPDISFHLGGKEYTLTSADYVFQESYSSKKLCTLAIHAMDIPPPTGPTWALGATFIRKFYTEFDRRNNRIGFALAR
pIC50: −log10 of the molar value.
assay-metric: pIC50

>>> value_reported("CC(=O)N[C@@H](Cc1cnc[nH]1)C(=O)N1CCC[C@@H]1C(=O)N[C@@H](Cc1ccccc1)C(=O)N[C@@H](Cc1cnc[nH]1)C(=O)N[C@@H](CC(C)C)[C@@H](O)CC(=O)N[C@@H](CC(C)C)C(=O)N[C@@H](Cc1ccccc1)C(N)=O")
7.85
>>> value_reported("CC(=O)N[C@@H](Cc1cnc[nH]1)C(=O)N1CCC[C@@H]1C(=O)N[C@@H](Cc1ccccc1)C(=O)N[C@H](C(=O)N[C@@H](CC(C)C)[C@@H](O)CC(=O)N[C@@H](CC(C)C)C(=O)N[C@@H](Cc1ccccc1)C(N)=O)C(C)C")
8.49

(A) CC(=O)N[C@@H](Cc1cnc[nH]1)C(=O)N1CCC[C@@H]1C(=O)N[C@@H](Cc1ccccc1)C(=O)N[C@H](C(=O)N[C@@H](CC1CCCCC1)[C@@H](O)CC(=O)N[C@@H](CC(C)C)C(=O)N[C@@H](Cc1ccccc1)C(N)=O)C(C)C
(B) CC(=O)N[C@@H](Cc1cnc[nH]1)C(=O)N1CCC[C@@H]1C(=O)N[C@@H](Cc1ccccc1)C(=O)N[C@@H](Cc1cnc[nH]1)C(=O)N[C@@H](CC1CCCCC1)[C@@H](O)CC(=O)N[C@@H](CC(C)C)C(=O)N[C@@H](Cc1ccccc1)C(N)=O
Enquiry: When the recorded pIC50 values are compared, which is smaller: that of A or that of B ? Write the label of whichever entry you select.
Return: A

Entry source: ChEMBL document CHEMBL1124191
